- protocol-summary: autophagy modulators in MEF cells, primary screen, imaging, high-content, MEF GFP-LC3 (AID 463193);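 note: cell loss after 18 h compound exposure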
- condition-context: MEF GFP-LC3 puncta imaging, at 10 µM; measured here: cell loss, nuclei count
Out of some 190,000 compounds screened, about 1,900 (1%) were called active. The full list was thinned out, with actives kept by preference.
Rule: toxicity under 20% gives No, otherwise Yes.

CCCc1[nH]nc2c1C(C1CC=CCC1)C(C#N)=C(N)O2 (stereo unspecified) ... No
CC(C)[C@H](NC(=O)c1ccc(F)cc1)C(=O)OCC(=O)NC(=O)c1cccn1C ... No
CCN1C(=O)/C(=C\N2CCOCC2)SC1=S ... No
CC(=O)NC1=NN(C(C)=O)C(C)(c2ccc(Cl)s2)S1 (stereo unspecified) ... Yes
Cn1c(N)c(C(=O)COC(=O)c2cnc(Cl)c(Cl)c2)c(=O)n(C)c1=O ... No
COc1ccc(-c2nc(N)sc2C2(O)C(=O)Nc3c(Br)cc(F)cc32)cc1OC (stereo unspecified) ... No
CCCc1[nH]nc2c1C(c1ccc(Br)s1)C(C#N)=C(N)O2 (stereo unspecified) ... No
NC(=S)N/N=C/c1ccc([N+](=O)[O-])cc1 ... Yes
O=C(Nc1cccc([N+](=O)[O-])c1)Nc1ccc(Cl)cn1 ... No
COc1ccc(Oc2coc3cc(OC(=O)c4cncc(Br)c4)ccc3c2=O)cc1 ... No
CC(=O)NC1=NN(C(C)=O)C(C)(c2ccc(C)cc2)S1 (stereo unspecified) ... No
